target: SRBD subdomain of SARS-CoV-2 S protein (SARS-CoV-2, UniProt P0DTC2 319-541); assay: ELISA on coated SRBD
EC50 values by entry
PROPERTY MEASURED: EC50 (ng/mL)

>>> reported("COV2-2113 (antibody, V domains shown) VH: EVQLVESGGGLIQPGGSLRLSCAASEVTVSSNYMSWVRQAPGKGLEWVSLIYSGGTTYYADSVKGRFTISRDNSKNTLYLQMNSLRAEDTAVYYCARDFLRWHDLWGQGTLVTVSS VL: DIQMTQSPSSLSASVGDRVTITCQASQDINNYLNWYQQKPGKAPKLLIYDASNLETGVPLRFSGSGSGTDFIFTISSLQPEDIATYYCQQYDNLPPVFGGGTKVEIK")
0.6
>>> reported("COV2-2082 (antibody, V domains shown) VH: EVQLVESGGGVVRPGGSLRLSCAASGFIFDDYDMTWVRQAPGKGLEWVSGISWNGGNTGYADSVKGRFTISRDNAKNSLYLQMNSLRAEDTALYHCAVIMSPIPRYSGYDWAGGAFDIWGQGTMVTVSS VL: SSELTQDPAVSVALGQTVRITCQGDSLRSYYASWYQQKPGQVPILVIYDKNNRPSGIPDRFSGSSSGNTASLTITGAQAEDEADYYCNSRDSSGNAVVFGGGTKLTVL")
0.6
>>> reported("COV2-2098 (antibody, V domains shown) VH: EVQLLESGGGLIQPGGSLRLSCAASGFTFSNYAMSWVRQAPGKGLEWVSGIISTSGGATYNADSVRGRFTTSRDNSKNILYLQMNSLRGEDTAVYYCVKGLFDWFPLWGQGTMVTVSS VL: DIVMTQSPATLSVSPGERAILSCRASQSVRSNLAWYQQKPGQAPRLLISGASTRATAIPARFSGSGSGTEFTLTITSLQSEDCAVYYCHQYNNWPQTFGQGTKVEIK")
0.7
>>> reported("COV2-2068 (antibody, V domains shown) VH: EVQLVESGGGLVQPGGSLRLSCAASGFTVSSNYMSWVRQAPGKGLEWVSVIYPGGSAFYADSVKGRFTISRHNSNNTLCLQMNSLRTEDTAVYYCARSYDILTGYRDAFDIWGQGTMVTVSS VL: QSVLTQPPSVSGAPGQRVTISCTGSSSNIGSGSDVHWYQQLPGTAPKLLIYGNTNRPSGVPDRFSGSKSGTSASLAITGLQAEDEADYYCQSYDSRLSGFVVFGGGTKLTVL")
1.2

Values were extracted from patent US20230122364A1.
